Reference source for all entries: ChEMBL document CHEMBL1157539

Tested on: Plasmodium falciparum
Test: GSK_TCMDC: Inhibition of Plasmodium falciparum Dd2 in whole red blood cells, using parasite LDH activity as an index of growth. Test compounds present at 2uM
Type: functional
Catalogue of Inhibition values
Please give a number only; it is taken to be in %.

COC(=O)c1ccccc1COc1ccc(CC2(NC(=O)[C@H](Nc3ccc(C#N)c4ccccc34)C(C)(C)C)CCCC2)cc1 :: 82

# Inhibition of `CC(=O)Nc1ncc(C(=O)Nc2cccc(-c3ccc(-c4nc5ccccc5[nH]4)cc3)c2)s1` = 66

# Inhibition of `COc1ccc2[nH]c(C)cc(=NN=Cc3ccccc3)c2c1` = 6

# Inhibition of `Fc1ccc2[nH]c(-c3cccc(-c4ccc(CN5CCC(CCN6CCCCC6)CC5)cc4)c3)nc2c1.O=C(O)C(F)(F)F` = 100

# Inhibition of `Cc1cc2c(cc1C(F)(F)F)N(C(=O)Nc1cc(OCCN(C)C)cc(C(F)(F)F)c1)CC2.Cl` = 19

# Inhibition of `Cc1cc(=NN=Cc2cccc(Cl)c2)c2ccc(F)cc2[nH]1` = 98

# Inhibition of `CN1CCC(NC(=O)c2cc(Oc3ccc4c(c3)CCN4C(=O)Nc3cccc(C(F)(F)F)c3)ccn2)CC1.O=C(O)C(F)(F)F` = 17

# Inhibition of `CCN(CCCN1CCCC1)c1cc(C)nc(Nc2ccc(Cl)cc2)n1.O=C(O)C(=O)O` = 12

# Inhibition of `Fc1ccc(-c2nc(NCc3cccc(C(F)(F)F)c3)nn2-c2cccc(C(F)(F)F)c2)cc1C(F)(F)F` = 58

# Inhibition of `O=C(Nc1ccc(N2CCN(Cc3c[nH]c4cc(F)ccc34)CC2)cc1)c1ccccc1-c1ccc(C(F)(F)F)cc1` = 7

* * *

System: Plasmodium falciparum
Assay: GSK_TCMDC: Inhibition of Plasmodium falciparum Dd2 in whole red blood cells, using parasite LDH activity as an index of growth. Test compounds present at 2uM
Assay type: functional
Catalogue of Inhibition values
Please give a number only; it is taken to be in %.

O=C(Nc1cccc(N2CCC(NCCCn3ccnc3)CC2)c1)c1cccc(C(F)(F)F)c1 :: 2
CCC(CN1C(=O)C(c2ccccc2)(c2ccccc2)N=C1N)c1ccccc1.O=CO (centres undefined) :: 98
CCOc1ccc(C(=O)N2CCOC(CCN3CCC(c4ccccc4)CC3)(c3ccc(Cl)c(Cl)c3)C2)cc1 (centres undefined) :: 71
Cc1ccc(Cl)c2sc(N3CCN(C(=O)c4ccc([N+](=O)[O-])o4)CC3)nc12 :: 94
CN(c1ccccc1)S(=O)(=O)c1cccc(NC(=O)c2ccc(-n3ccnc3)c([N+](=O)[O-])c2)c1 :: 0
CCCC(C)n1ccc2c3c(N)nc(N)nc3ccc21 (centres undefined) :: 91
N#Cc1ccc(C(=O)NC2CCN(CCCCCNC(=O)/C=C/c3ccc(Cl)c(Cl)c3)CC2)cc1 :: 1
CN(c1ccc(C(=O)N[C@@H](CCC(=O)O)C(=O)O)cc1)S(=O)(=O)c1ccc2nc(N)[nH]c(=O)c2c1 :: 3
Cl.NOCCCOc1ccc(Cl)cc1 :: 0
Cc1cc(-c2ccc3c(c2)CCN(CCC2CCC(NC(=O)/C=C/c4cccc(Cl)c4)CC2)CC3)on1.Cl (centres undefined) :: 49

# Inhibition of Brc1cc(Br)c2c(c1)C(NCCCNC1CCNc3c(Br)cc(Br)cc31)CCN2 (centres undefined) = 25

# Inhibition of `COc1cccc(C(=O)NCc2nnc(S)n2-c2ccc(Cl)c(Cl)c2)c1` = 100

# Inhibition of `COc1cc(Cc2cnc(N)nc2N)ccc1OCc1ccc(-c2csnn2)cc1` = 0

# Inhibition of `COc1ccc(Oc2cnc(N)nc2N)c(C(C)C)c1` = 0

# Inhibition of `COc1ccc(CN2CCC(NCc3cccc([N+](=O)[O-])c3)CC2)cc1.O=C(O)C(F)(F)F` = 3

# Inhibition of CCCC(C)Nc1nc(C)cc(N[C@@H](Cc2ccccc2)C(=O)NCc2cccc(F)c2)n1.O=C(O)C(F)(F)F (some centres undefined) = 75

# Inhibition of `COc1cccc2c(NN=Cc3cccc(Cl)c3)ccnc12` = 77

# Inhibition of NC1CCN(Cc2ccc(-c3ccc(-c4nc5cc(F)ccc5[nH]4)s3)cc2)C1.O=C(O)C(F)(F)F (centres undefined) = 98

# Inhibition of `Cc1ccc(-c2noc(COc3ccccc3C(=O)NC3CCCC3)n2)cc1` = 92

# Inhibition of `CCN(CCCN1CCCCC1)c1cc(C)nc(Nc2cccc3c2CCCC3)n1.O=C(O)C(F)(F)F` = 46

# Inhibition of `Cc1cccc2nc(-c3ccc(-c4cccc(CN5CCC(CO)CC5)c4)s3)[nH]c12.O=C(O)C(F)(F)F` = 61

# Inhibition of `CCOc1ccc2[nH]c(C)cc(=NN=Cc3cccc(C)n3)c2c1` = 73

# Inhibition of `O=C(O)C(F)(F)F.Oc1ccc(CCNc2nc(NCCCOc3cccc(CN4CCCCC4)c3Cl)nc(N3CCNCC3)n2)cc1` = 22

# Inhibition of `CCCCN(CCCC)Cc1cc(N(C)c2ccc([N+](=O)[O-])cn2)ccc1O.O=C(O)C(=O)O` = 98
